- System: SK-MEL-5 melanoma
- test_protocol: NCI tumour cell line growth inhibition, 48 h
Could you please report measured TGI for the items listed next?

Examples with answers:
| molecule | TGI |
| --- | --- |
| CC(C#N)(NO)C(C)(C#N)NO (stereo not given) | > 100 µM |
| Nc1cc(C2CCCc3c2[nH]c2ccccc32)ccc1O (stereo not given) | > 100 µM |
| COC(=O)CNC(=O)C(=O)c1c(O)c(O)c(C(C)C)c2cc(C)c(-c3c(C)cc4c(C(C)C)c(O)c(O)c(C(=O)C(=O)NCC(=O)OC)c4c3O)c(O)c12 | 11.3 µM |
| Nc1cc(CO)cc(Nc2c3ccccc3nc3ccccc23)c1 | 30.8 µM |
| CN(C)N1C(=O)C(=O)N(c2cccc3ccccc23)C1=O | > 10 µM |

Please look at the items below and tell me TGI for each one, in order.
1. CC(=O)c1cc2c(Br)cccc2oc1=O
2. COCN1COCN(C)C1=O
3. O=C(Cn1c2ccc(Br)cc2c2nc3ccccc3nc21)NCc1ccccc1
4. Cc1cc(NS(=O)(=O)c2ccc(NC(=O)c3ccc(Cl)c4c(Nc5ccc(S(=O)(=O)Nc6cc(C)on6)cc5)c5ccccc5nc34)cc2)no1
5. Cc1cc(=O)[nH]c2cc(NC(=O)C(C)NC(=O)C(C)NC(=O)C(C)NC(=O)OC(C)(C)C)ccc12 (stereo not given)

> 100 µM
> 100 µM
> 100 µM
55.4 µM
> 15 µM

Below are 5 molecules. Give each one its TGI.
1. O=C1CCCC2=C1CC1=C(CCCC1=O)N2c1ccc(Cl)cc1
2. Nc1cc(OCC2CCCCC2)nc(N)n1
3. COC(=O)NC1(NC(=O)OC)NC(=O)c2ccccc2N1
4. N#CN1CC[C@@H]2CC3(CCC2C1)OCCO3 (stereo not given in full)
5. O=c1[nH]c2nc3ccccc3c(=O)n2nc1Cc1ccccc1

> 100 µM
> 100 µM
> 100 µM
> 100 µM
> 100 µM

For every listed record, write down its TGI.
1. C(=N\NC1=NCCCCN1)/c1ccc2ccccc2c1
2. COc1ccc2[nH]c3c(C)c4c(c(C)c3c2c1)CN(C)C=C4
3. CCO/N=C\c1ccc2oc(-c3ccccc3)cc(=O)c2c1
4. O=CNC(Cc1cnc[nH]1)C(=O)O (stereo not given)

31.3 µM
6.75 µM
5.54 µM
> 100 µM

Parameters: items (list). Returns: TGI for each item.
1. CC(C)(C)OC(=O)NC(CSCc1ccc(C(=O)c2ccccc2)cc1)C(=O)N1CCN(CCCCN2c3ccccc3Sc3cc(N=[N+]=[N-])ccc32)CC1 (stereo not given)
2. CN(c1cccc(C(=O)O)c1)c1cc(O/N=[N+](\[O-])N(C)C)c([N+](=O)[O-])cc1[N+](=O)[O-]
3. O=C(COc1cc(=O)oc2ccccc12)c1ccccc1
4. COP(=O)(OC)C(N)Cc1c[nH]c2ccccc12 (stereo not given)
5. CC(=O)OCC1OC(n2c(C)c(C)cc(C#N)c2=S)C(OC(C)=O)C(OC(C)=O)C1OC(C)=O (stereo not given)
6. Cc1c(C)c2cc3c(=O)c(CCl)coc3c(C)c2oc1=O

["> 100 µM", "> 100 µM", "> 100 µM", "> 100 µM", "> 100 µM", "> 100 µM"]
